These data points were gathered from patent US20240270846A1.

ASSAYED_TARGET: T1, biotin-labeled cynomolgus monkey CD137 fused to human IgG1 Fc fragment (cynomolgus monkey, UniProt Q07011 24-186 (human entry), limits assumed, biotin-labeled)
T1 construct: also called cyno CD137-Fc; not shown: human IgG1 Fc fragment
T1 chain: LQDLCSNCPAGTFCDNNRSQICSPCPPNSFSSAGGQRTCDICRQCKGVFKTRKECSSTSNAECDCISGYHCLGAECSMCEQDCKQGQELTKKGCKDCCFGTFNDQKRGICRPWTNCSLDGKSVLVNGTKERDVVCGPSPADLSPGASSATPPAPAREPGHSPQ
EXPERIMENT_DESCRIPTION: bead ELISA (chemiluminescence), purified IgG on biotin labeled cyno CD137-Fc on streptavidin beads
TEST_READOUT: RLU
A bare number is not enough; add the unit after it.

The binder DXDU01_3#051 (antibody, human IgG1, V domains shown, IgG: VH joined to human IgG1 CH1-Fc; also called dBBDu127) VH: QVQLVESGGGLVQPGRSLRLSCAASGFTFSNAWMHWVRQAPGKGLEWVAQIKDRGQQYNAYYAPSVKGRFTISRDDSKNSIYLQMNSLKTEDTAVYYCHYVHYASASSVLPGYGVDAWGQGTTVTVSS VL: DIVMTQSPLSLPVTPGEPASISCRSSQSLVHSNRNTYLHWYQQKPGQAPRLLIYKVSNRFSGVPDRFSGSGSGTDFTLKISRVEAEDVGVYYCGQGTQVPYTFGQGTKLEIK showed RLU equal to 10900 RLU

Reported RLU of DXDU01_3#094 (antibody, human IgG1, V domains shown, IgG: VH joined to human IgG1 CH1-Fc; also called dBBDu121) VH: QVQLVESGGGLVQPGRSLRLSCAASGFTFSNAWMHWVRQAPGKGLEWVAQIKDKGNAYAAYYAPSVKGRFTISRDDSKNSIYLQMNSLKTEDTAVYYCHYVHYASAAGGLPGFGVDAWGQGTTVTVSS VL: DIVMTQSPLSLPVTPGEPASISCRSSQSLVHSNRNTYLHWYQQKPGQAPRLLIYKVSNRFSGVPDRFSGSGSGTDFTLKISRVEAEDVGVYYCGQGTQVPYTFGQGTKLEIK : 19100 RLU
